Below, each of the molecules is paired with its reported inhibition value.
target.or.system: Sentrin-specific protease 8 (Homo sapiens) (UniProt Q96LD8)
Sequence (Q96LD8 whole entry, looked up): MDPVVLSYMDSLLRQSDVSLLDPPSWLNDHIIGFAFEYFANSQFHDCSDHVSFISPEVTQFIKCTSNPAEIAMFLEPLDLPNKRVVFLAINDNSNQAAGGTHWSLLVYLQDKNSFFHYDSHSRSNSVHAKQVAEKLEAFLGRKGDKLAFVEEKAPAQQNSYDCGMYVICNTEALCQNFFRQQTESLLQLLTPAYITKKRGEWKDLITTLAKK
procedure.details: blockers of SENP8 deneddylase activity – biochemical, fluorescence, Nedd8 protein substrate, uHTS, primary screen (AID 602440)
settings: recombinant SENP8, Nedd8 substrate fluorescence; at 20 µM; stronger effect = higher value
Among all 360,000 compounds or so, about 2,300 (0.64%) were called active. Shown is part of a subset that was picked to be rich in actives.
Dear colleague, please return just the value in %, with no unit written.

- COc1cc(NC(=O)COC(=O)c2ccc([N+](=O)[O-])s2)cc(OC)c1OC: 26.8
- CCN(CC)CCN(C)C(c1ccnc2ccccc12)c1nnnn1-c1ccc2c(c1)OCCO2 (stereo not drawn): 7.5

Param readout= inhibition; system= Sentrin-specific protease 8 (Homo sapiens) (UniProt Q96LD8); entry= CN(C)c1ccc(S(=O)(=O)NCC(=O)NCC2CCCCC2)cc1[N+](=O)[O-] ; returns value.
11.6

Another molecule to look at: COc1cc(CN2CCCN(C)CC2)c([N+](=O)[O-])cc1OC
11.8

Another molecule to look at: Cc1ccnc(N2CCN(C(=O)CSc3nc4ccccc4nc3N3CCCCC3)CC2)c1
-63.3

Another molecule to look at: CCn1c(C)nc2c1C(=O)c1ccccc1C2=O
53.2

Another molecule to look at: COC(=O)[C@]12CCCCC=C1N(CCC1=CCCCC1)C(=O)[C@H](CC(=O)NCC1CCCCC1)C2
10.5

Another molecule to look at: Cc1[nH]n(-c2ccccc2)c(=O)c1CCOC(=O)c1ccc(C(F)(F)F)cc1
15.4

Another molecule to look at: O=C(NCCC1CCCCN1S(=O)(=O)c1ccccc1)C(=O)NCC1CCCO1 (stereo not drawn)
7.7

Another molecule to look at: Cc1cc(NC(=O)CN2C(=O)NC(CCc3ccccc3)C2=O)no1 (stereo not drawn)
12.2

---

target.or.system: Sentrin-specific protease 8 (Homo sapiens) (UniProt Q96LD8)
procedure.details: blockers of SENP8 deneddylase activity – biochemical, fluorescence, Nedd8 protein substrate, uHTS, primary screen (AID 602440)
settings: recombinant SENP8, Nedd8 substrate fluorescence; at 20 µM; stronger effect = higher value
Hit rate of the full screen: of about 360,000 compounds, about 2,300 (0.64%) were called active. The sample holds actives, similar compounds and a random draw of the others, so the mix is not that of the screen.
measured.quantity: inhibition

Record excerpt, results attached:
• CN(CC(=O)Nc1ccc(F)cc1)C(=O)c1ccc(-c2ccc(Cl)cc2)o1 = -23.1% (inactive)
• COc1ccc(/C=C2/C(=O)N(c3ccccc3)N=C2C)c(OC)c1 = 53.8% (active)
• CC[n+]1cc(C)ccc1/C=C/c1ccc(N(C)C)cc1 = 18.1% (inactive)
• O=C1CC(Cc2ccc(Cl)cc2)C(=O)N1c1cc(Cl)ccn1 (configuration not stated) = 9.6% (inactive)
• O=C1Nc2ccc([N+](=O)[O-])cc2C1=Nc1cccc(CO)c1 = 65.6% (active)

I have this compound here, COc1ccc(OC)c(C(O)c2nc3ccccc3n2C)c1 (configuration not stated) , and I need its recorded inhibition.
15.4% (inactive)

Another compound to look at: Nc1cccc(S(=O)(=O)Nc2ccc(SC(F)F)cc2)c1
5.2% (inactive)

Another compound to look at: CCc1cccc(C)c1NC(=O)COC(=O)CC1CCCC1
40.9% (active)

Another compound to look at: Cc1c(NS(=O)(=O)c2cccc(C(=O)Nc3ccc(SC(F)F)cc3)c2)c(=O)n(-c2ccccc2)n1C
-1.9% (inactive)

Another compound to look at: CCC1CCCCN1C(=O)Nc1cccc(NC(=O)N2CCCCC2CC)c1 (configuration not stated)
13% (inactive)

Another compound to look at: COc1ccc(/C=C2/C(=O)OCc3cc(OC)c(OC)cc32)c(OC)c1
20.7% (inactive)

Another compound to look at: Cc1cccc(C)c1NC(=O)CNC(=O)C1CCCC1
11.2% (inactive)

Another compound to look at: CCN1C(=O)[C@@H]2[C@@H](c3ccc(-c4ccccc4)cc3)N3CCCC[C@@]3(C(=O)OC)[C@@H]2C1=O
3.1% (inactive)

Another compound to look at: COC(=O)N(C)C[C@@H]1OCc2cnnn2CCCC(=O)N([C@@H](C)CO)C[C@@H]1C
18.6% (inactive)

Another compound to look at: CC(C)c1nc2oc3c(N4CCN(C)CC4)ncnc3c2c2c1CCC2
-130% (inactive)

Another compound to look at: CCCN1C(=O)C(Cc2nc3ccccc3c(=O)n2-c2ccccc2)c2cc(C)ccc21 (configuration not stated)
12.4% (inactive)

Another compound to look at: O=C(CN1CCN(c2cccc(Cl)c2)CC1)Nc1ccc(S(=O)(=O)N2CCOCC2)cc1
15% (inactive)
